# Test system: SR
# assay_text: NCI tumour cell line growth inhibition, 48 h
The source made the active and inactive calls. Cut-off read from the data, not from the text of the source: active = GI50 up to about 1.1 µM and inactive = higher. Bridge positions count the residues as written; N and C are the ends. Square brackets hold non-standard residues; d marks the D form. Peptide text beside a SMILES is read from it. I, II: the chains in the order shown. * marks the point of attachment. Quinoxaline2carbonyl = O=C(c1cnc2ccccc2n1)*; NMeV = CN[CH](C(=O)O)C(C)C; NMeC = CN[CH](CS)C(=O)O
// classify into True for active, False for inactive

Below, 3 compounds whose answers are already recorded.
1) Nc1nc(N)c(/N=N/c2ccc(C(=O)O)c(O)c2)c(N)n1    False
2) COC1OC(COCc2ccc(Cl)cc2)C(OCc2ccc(Cl)cc2)C1N=[N+]=[N-] (configuration not stated)    False
3) C/C(=N/Nc1nc(C)cc(O)n1)C(=O)O    False

Recorded call for O=C(c1ccc(Cl)cc1Cl)N(C(=O)N1CCC(c2ccccc2)CC1)c1ccccc1 ? False

Thanks! And CC(=O)/C(=N\N=C(N)N)c1ccccc1 ? False

Thanks! And O=C(COc1ccccc1Cl)N1N=C(c2ccccc2)CC1(O)c1ccccc1 (configuration not stated) ? False

Thanks! And CCOC1=C/C(=N\Nc2ccc([N+](=O)[O-])cc2)CCC1 ? False

Thanks! And CCCCON1C[C@@H](O)C(O)[C@@H](O)C1 (some centres not stated) ? False

Thanks! And Cc1cc(Br)c(N2C3=C(CC4=C2CCCC4=O)C(=O)CCC3)c(Br)c1 ? False

Thanks! And CC1=NN(C(=O)Cc2ccccc2)C(=O)/C1=C\c1ccco1 ? False

Thanks! And CC1NC(=O)C(NC(=O)c2cnc3ccccc3n2)COC(=O)C(C(C)C)N(C)C(=O)C2CSSCC(C(=O)N(C)C(C(C)C)C(=O)OCC(NC(=O)c3cnc4ccccc4n3)C(=O)NC(C)C(=O)N2C)N(C)C1=O (configuration not stated) (I: Quinoxaline2carbonyl-SA[NMeC][NMeV] / II: Quinoxaline2carbonyl-SA[NMeC][NMeV]; ester I:1-II:C, I:C-II:1; disulfide I:3-II:3; configuration not given here) ? True

Thanks! And CCC1CN2CCc3c([nH]c4ccccc34)C2C[C@@H]1CC(=O)N(C)C (some centres not stated) ? False

Thanks! And CCC1CN2CCC3(c4ccccc4)CC(C(=O)OC)=CC1C23 (configuration not stated) ? False

Thanks! And CC(=O)c1ccc2c(c1)CC1(C2)Cc2cc3c(c(C(=O)O)c2C1)CCC3 (configuration not stated) ? False

Thanks! And NC(Cc1ccc(O)c(O)c1)P(=O)(O)O (configuration not stated) ? False

Thanks! And Cc1cc(=O)n2nc(CN3CCCCC3)sc2n1 ? False

Thanks! And NC1=NC2=c3ccccc3=C(c3cnccn3)C2(c2cnccn2)c2ccccc21 (configuration not stated) ? False

---

So I've got a bunch of compounds here, and I need their GI50 values.
# Tested on: MCF7
# assay_text: NCI tumour cell line growth inhibition, 48 h
Calls of active or inactive are those of the source. Rule as the data show it: active = GI50 up to about 1.1 µM and inactive = higher.

Reference set, count: 6
1. CC(=O)Nc1c(C)cc2c(nc3n2CCC3OC(C)=O)c1[N+](=O)[O-] (configuration not stated)    > 100 µM (inactive)
2. C#CCCCC(=C)C[C@H](OCc1ccccc1)[C@H]1OC(=O)[C@@H]1C    37.2 µM (inactive)
3. C/C(=N/Nc1nc(C)cc(O)n1)C(=O)O    > 100 µM (inactive)
4. CC(=O)c1ccc2c(c1)CC1(C2)Cc2cc3c(c(C(=O)O)c2C1)CCC3 (configuration not stated)    > 100 µM (inactive)
5. CC1(C)C(C(=O)OC(C#N)c2cccc(OCC(=O)OCc3ccccc3)c2)C1(C)C (configuration not stated)    53 µM (inactive)
6. C=C(CC[C@@H](C)[C@H]1CC[C@@]2(C)C3=C(CC[C@]12C)[C@@]1(C)CC[C@H](O)[C@@H](C)C1CC3)C(C)C (some centres not stated)    1.47 µM (inactive)

Kindly review the next compound as well.
Quick check: GI50 of COc1ccc(Nc2[nH]c(C(C)=O)c(N)c2C(=S)Nc2ccccc2)cc1 ? 23.6 µM (inactive)

---

# Tested on: CAKI-1
# assay_text: NCI tumour cell line growth inhibition, 48 h
Active and inactive are the calls of the source. Cut-off read from the data, not from the text of the source: active = GI50 up to about 1.1 µM and inactive = higher. Where a SMILES comes first, the peptide text is derived from it. The star is where a group is joined. Boc = CC(C)(C)OC(=O)*; nBu = CCCC*
// classify into active, inactive

Below, 5 compounds whose answers are already recorded.
1. Cc1ccc(C(=O)CCl)o1    inactive
2. Cc1ccc(C)c2c1n1c(=O)n(C)c(=O)n21    inactive
3. Cc1cc(Cl)ccc1NC(=O)C(=O)Cc1occc(=O)c1O    inactive
4. COC1C(O)C(C)OC(O[C@@H]2C[C@H]3CC[C@@H]4[C@H](CC[C@]5(C)[C@@H](C6=CC(=O)OC6)CC[C@]45O)[C@@]3(C)[C@H](O)C2)C1O (some centres not stated)    active
5. CC(=O)Nc1c(C)cc2c(nc3n2CCC3OC(C)=O)c1[N+](=O)[O-] (configuration not stated)    inactive

Recorded call for CCCCOc1ccc(CC(NC(=O)OC(C)(C)C)C(=O)NC(C)C(=O)NC(Cc2ccccc2)C(=O)NCC(N)=O)cc1 (configuration not stated) (Boc-Y(nBu)AFG-NH2; configuration not given here) ? inactive

Thanks! And CC(C)[C@@H](C)CC[C@@H](C)C1CC=C2[C@@H]3CCC4C[C@@H](O[Si](C)(C)C(C)(C)C)CC[C@]4(C)C3CC[C@@]21C (some centres not stated) ? inactive

Thanks! And N#CSC#Cc1ccc(C#CSC#N)cc1 ? inactive

Thanks! And CCOC(CNCCC(=O)OC)OCC ? inactive

Thanks! And CC(=O)O[C@]1(C(C)=O)CC[C@H]2[C@@H]3C[C@H](C)C4=CC(=O)C=C[C@]4(C)[C@@]3(F)[C@@H](O)C[C@@]21C [FLUOROMETHOLONE ACETATE] ? inactive

Thanks! And ClC1CCC2OOC1O2 (configuration not stated) ? inactive

Thanks! And C[C@H](CCC(=O)O)[C@H]1CC[C@H]2[C@@H]3[C@H](O)C[C@@H]4C[C@H](O)CC[C@]4(C)[C@H]3C[C@H](O)[C@]12C ? inactive

---

# Tested on: TK-10
# assay_text: NCI tumour cell line growth inhibition, 48 h
Active and inactive are the calls of the source. Cut-off read from the data, not from the text of the source: active = GI50 up to about 1.1 µM and inactive = higher.
So I've got a bunch of compounds here, and I need their GI50 values.

Reference set, count: 8
1) CN(C)c1ccc(/C=C/C(=O)C(C)(C)C)cc1Br    30.8 µM (inactive)
2) CN=[S+]([O-])(c1ccccc1)c1ccccc1    > 100 µM (inactive)
3) O=C(Cc1ccccc1)N/N=C(\C1=Nc2ccc([N+](=O)[O-])cc2NC1O)C(O)c1ccc([N+](=O)[O-])cc1 (configuration not stated)    > 100 µM (inactive)
4) NC(=O)Cc1nc2c(N)ncnc2n1C1OC(CO)C(O)C1O (configuration not stated)    > 100 µM (inactive)
5) Cc1cnc2nc(-c3ccc(Cl)cc3)cc(O)c2c1    43.2 µM (inactive)
6) CCCCc1ccc(Nc2nc(Cl)c3[nH]cnc3n2)cc1    22.8 µM (inactive)
7) FC1=C2CCCCCC2SC1(F)F (configuration not stated)    36.6 µM (inactive)
8) COC(=O)c1c(O)ccc2c1c1c(n2Cc2ccccc2Cl)C(=O)c2ccccc2C1=O    16.1 µM (inactive)

For every record below, what is its GI50?
1. C[N+]1(Cc2ccc(Cl)c(Cl)c2)CCCC1C1CCCN(Cc2ccc(Cl)c(Cl)c2)C1 (configuration not stated)
2. O=C1CSC(c2c[nH]c3ccccc23)N1c1ccc(Cl)cc1 (configuration not stated)
3. CO[C@@]12C[C@@H](C)C3=CCC(C)=C3CC1=C(C)C(=O)O2
4. Nc1ccc(OCC(O)N2C(=O)c3ccccc3C2=O)cc1 (configuration not stated)

> 100 µM (inactive)
> 100 µM (inactive)
> 100 µM (inactive)
> 100 µM (inactive)

---

# System: IGROV-1
# assay_text: NCI tumour cell line growth inhibition, 48 h
Active and inactive are the calls of the source. Cut-off read from the data, not from the text of the source: active = GI50 up to about 1.1 µM and inactive = higher.
// classify into active, inactive

1) O=C1/C(=N/c2ccc(Nc3ccccc3)cc2)Oc2ccccc21    inactive
2) C=CC/N=C(\S)Nc1sc2c(c1C(=O)OCC)CC(C)CC2 (stereo not drawn)    inactive
3) c1csc(-c2cc(-c3ccsc3)c(-c3ccsc3)s2)c1    inactive
4) COc1ccc(-n2c(=O)n(C)c(=O)n2-c2c(C)c(C)c(C)c(C)c2C)cc1    inactive
5) c1ccc2c(CSCc3cccc4ccccc34)cccc2c1    inactive
6) Cc1cn2c(=O)c3ccccc3nc2s1    inactive
7) C[C@]12CC[C@H]3[C@@H](CCC4=C[C@@H](OC5OCC(OC6OC(CO)C(O)C(O)C6O)C(O)C5O)CC[C@@]43C=O)[C@@]1(O)CCC2C1=CC(=O)OC1 (stereo partly drawn)    active

Next:
Recorded call for COCCOCCOC1=C(Cl)C(=O)c2c(O)ccc(O)c2C1=O ? inactive
